# Tested on: FXR:RXRa (NR concentration 270 nM, RXRa partner concentration 90 nM)
# EXPERIMENTAL_DETAILS: PBM binding z-score (relative to random genomic background probes); higher = stronger binding; sequences stand for … in GC…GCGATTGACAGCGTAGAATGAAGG
Catalogue of PBM binding z-score values
Answer with the value's number alone.

Solved entries:
INSERT INTO results (residues, measurement) VALUES
  ('AATACAGGGTCATCGTAGGCCAGACTACGCACAG', 7.17),
  ('CCTCAAAGTTCAACTAAGGTAACGTAAAGCACGC', 6.89),
  ('CGTCCAAGGTCTGAGAGGTCAGTGAATGCCGAGT', 1.6),
  ('CCTCGGAAGACAACAGGAGGTCAGAGCTGCCAGA', 0.802),
  ('AATACCGGGTCACTAGGCCAGAGTAGGTACGAAT', 4.09),
  ('AGTCAAAGTTCACTAGGTAAAGTAAGATTCAGCT', 5.11);

Input: Lab note: need PBM binding z-score with FXR:RXRa (NR concentration 270 nM, RXRa partner concentration 90 nM) for entry ATCTCTAGGTAAAGATAGTTCATTGAATGCAAAT , please look it up.
Output: 0.585

Input: Would you mind doing ATATGTAGGTTATCGGGTCATCCAGTTTGCGCAT as well?
Output: 3.4

###

# Tested on: PPARg:RXRa DBDmut IVT, anti-RXR (DBD mutation: RXRa K156A/R161A, NR concentration 270 nM, RXRa partner concentration 90 nM)
# EXPERIMENTAL_DETAILS: PBM binding z-score (relative to random genomic background probes); higher = stronger binding; sequences stand for … in GC…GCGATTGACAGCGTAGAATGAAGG
Catalogue of PBM binding z-score values
Answer with the value's number alone.

Solved entries:
INSERT INTO results (residues, reported_metric, measurement) VALUES
  ('ATCGGAAGGTCGACGAGGTGAGTATACACCGTTT', 'PBM binding z-score', -0.35),
  ('GCAGACAGGTGAAGCGCAGGTAACTCAGGGTGGC', 'PBM binding z-score', 0.302),
  ('ACTTACGGGTCAACGAGGTTATAGCTCGCGTATA', 'PBM binding z-score', 3.43),
  ('CCTCGGAGGACAGAAGGTCAGTGCTGTCCGCTTT', 'PBM binding z-score', -0.0749);

Input: Tell me the measured PBM binding z-score of GCATATAGGTAATACAAGGTGAAAGTCCGATTGT , please.
Output: 4.15

Input: Would you mind doing GCTAGCAGGCCATTTGGGTCCCTCAATGACGGGC as well?
Output: -0.0266

###

# Tested on: LXRb homodimer (NR concentration 270 nM)
# EXPERIMENTAL_DETAILS: PBM binding z-score (relative to random genomic background probes); higher = stronger binding; sequences stand for … in GC…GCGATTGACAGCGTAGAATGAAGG
Catalogue of PBM binding z-score values
Answer with the value's number alone.

Solved entries:
INSERT INTO assay_data (residues, measurement) VALUES
  ('CTCGAAAGGTCGTGCTCGGGTGAGTATACCAAAC', -0.0126),
  ('GCCGCTAGGTCAGGTTGGTCAGCTAACGGGTACG', -0.194),
  ('AGAATGAGGGTATACGTAGATCAGGGAAGAAAGT', -0.229),
  ('CGAACTAGGTCATTGACAGGACAGTGATTAGTAA', -0.0597),
  ('TCTTGTAGATCAATATAGGTTAAGAAAGTGCGCT', 0.58);

Input: Tell me the measured PBM binding z-score of AGAACGAGGGCAATGAGTTGATAGCACGGGTGGC , please.
Output: -0.464
